biological target: Penicillin-binding protein 1B (Acinetobacter baumannii) (UniProt G1C7A4); experiment: Inhibition of Acinetobacter baumannii PBP1b transglycosylase activity at 500 uM using NBD-lipid 2 as substrate after 2 hrs by muramidase enzyme coupled HPLC analysis relative to control
Sequence (G1C7A4 as listed by the source): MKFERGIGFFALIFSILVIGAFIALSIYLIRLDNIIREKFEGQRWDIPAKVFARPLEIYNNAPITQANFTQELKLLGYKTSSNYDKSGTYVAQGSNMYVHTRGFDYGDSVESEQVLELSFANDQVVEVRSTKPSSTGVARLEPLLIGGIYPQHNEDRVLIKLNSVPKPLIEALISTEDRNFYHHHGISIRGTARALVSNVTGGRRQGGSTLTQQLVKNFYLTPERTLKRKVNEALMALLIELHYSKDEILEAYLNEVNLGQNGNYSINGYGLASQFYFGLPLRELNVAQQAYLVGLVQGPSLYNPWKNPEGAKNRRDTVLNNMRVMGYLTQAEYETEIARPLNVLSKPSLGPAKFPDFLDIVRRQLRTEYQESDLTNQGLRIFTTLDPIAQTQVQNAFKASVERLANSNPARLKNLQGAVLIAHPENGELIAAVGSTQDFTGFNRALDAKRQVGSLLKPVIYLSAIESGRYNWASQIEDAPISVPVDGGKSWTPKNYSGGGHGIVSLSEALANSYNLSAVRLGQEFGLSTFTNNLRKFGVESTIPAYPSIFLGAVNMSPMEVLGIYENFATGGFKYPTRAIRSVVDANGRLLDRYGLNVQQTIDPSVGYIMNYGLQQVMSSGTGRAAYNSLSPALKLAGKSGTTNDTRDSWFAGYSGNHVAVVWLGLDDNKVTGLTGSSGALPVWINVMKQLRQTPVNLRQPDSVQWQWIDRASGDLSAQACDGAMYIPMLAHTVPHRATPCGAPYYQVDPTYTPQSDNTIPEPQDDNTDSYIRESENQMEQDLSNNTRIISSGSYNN
quantity_name: inhibition (%)

Task: So what inhibition did CCCCCCCCCCCCn1cc(CO[C@H](CP(=O)(O)OCCCNCc2ccc3ccccc3c2)C(=O)OCC)nn1 get with Penicillin-binding protein 1B (Acinetobacter baumannii) (UniProt G1C7A4)?
Output: 55

Task: Ok, now CCCCCCCCCCCCn1cc(CO[C@H](CP(=O)(O)OCCCN(Cc2ccc(-c3ccccc3)cc2)C(=O)OC(C)(C)C)C(=O)OCC)nn1
Output: 33

Task: Ok, now CCCCCCCCCCCCn1cc(CO[C@H](CP(=O)(O)OCCCNCc2ccc(-c3ccccc3)cc2)C(=O)OCC)nn1
Output: 90

Task: Ok, now CCCCCCCCCCCCn1cc(CO[C@H](CP(=O)(O)OCCCNCc2ccc(-c3ccccc3)cc2)C(=O)O)nn1
Output: 13

[1] CCCCCCCCCCCCn1cc(CO[C@H](CP(=O)(O)OCCCN(Cc2ccc(-c3ccccc3)cc2)C(=O)OCC(Cl)(Cl)Cl)C(=O)OCC)nn1
[2] CCCCCCCCCCCCn1cc(CO[C@H](CP(=O)(O)OCCCNCc2ccc3ccccc3c2)C(=O)O)nn1
Task: Pick one: 1 or 2 . Which one has the lower reported inhibition? Indicate your choice by writing its label.
Output: 2

Each recorded value in this set is attributed to ChEMBL document CHEMBL4196094.
